Assay: Stability in mouse serum at 37 °C (radio-HPLC)
Type: in vitro ADME
Settings: 48 h, read-out: intact radiolabeled ligand (RCP)

compound: CC(C)C[C@H](NC(=O)C[C@H](O)[C@H](CC(C)C)NC(=O)[C@H](Cc1c[nH]cn1)NC(=O)CNC(=O)[C@@H](NC(=O)[C@H](C)NC(=O)[C@H](Cc1c[nH]c2ccccc12)NC(=O)[C@H](CCC(N)=O)NC(=O)[C@@H](Cc1ccccc1)NC(=O)CN1CCC(NC(=O)CN2CCN(CC(=O)O)CCN(CC(=O)O)CCN(CC(=O)O)CC2)CC1)C(C)C)C(N)=O [[^177Lu]Lu-RM2, metal not drawn]
remaining at 48 h, %: 17.1

compound: CC(C)CC(CC(C)C)NC(=O)[C@H](Cc1cnc[nH]1)NC(=O)CNC(=O)[C@@H](NC(=O)[C@H](C)NC(=O)[C@H](Cc1c[nH]c2ccccc12)NC(=O)[C@H](CCC(N)=O)NC(=O)[C@@H](Cc1ccccc1)NC(=O)COCC(=O)Nc1ccc(CNC(=O)CN2CCN(CC(=O)O)CCN(CC(=O)O)CCN(CC(=O)O)CC2)cc1)C(C)C [[^177Lu]Lu-NeoB, metal not drawn]
remaining at 48 h, %: 14.2

----------
The following molecules are shown together with reported remaining at 24 h values.
Experiment: Stability in mouse serum at 37 °C (radio-HPLC)
Format: in vitro ADME
Details: 24 h, read-out: intact radiolabeled ligand (RCP)
readout_type: remaining at 24 h (%)

molecule: CC(C)CC(CC(C)C)NC(=O)[C@H](Cc1cnc[nH]1)NC(=O)CNC(=O)[C@@H](NC(=O)[C@H](C)NC(=O)[C@H](Cc1c[nH]c2ccccc12)NC(=O)[C@H](CCC(N)=O)NC(=O)[C@@H](Cc1ccccc1)NC(=O)COCC(=O)Nc1ccc(CNC(=O)CN2CCN(CC(=O)O)CCN(CC(=O)O)CCN(CC(=O)O)CC2)cc1)C(C)C [[^177Lu]Lu-NeoB, metal not drawn]
readout_type: remaining at 24 h
unit_text: %
data_value: 27.9
//
molecule: CC(C)C[C@H](NC(=O)C[C@H](O)[C@H](CC(C)C)NC(=O)[C@H](Cc1c[nH]cn1)NC(=O)CNC(=O)[C@@H](NC(=O)[C@H](C)NC(=O)[C@H](Cc1c[nH]c2ccccc12)NC(=O)[C@H](CCC(N)=O)NC(=O)[C@@H](Cc1ccccc1)NC(=O)CN1CCC(NC(=O)CN2CCN(CC(=O)O)CCN(CC(=O)O)CCN(CC(=O)O)CC2)CC1)C(C)C)C(N)=O [[^177Lu]Lu-RM2, metal not drawn]
readout_type: remaining at 24 h
unit_text: %
data_value: 29.6

----------
Test: In vivo biodistribution and clearance in PC-3 tumor-bearing mice
Conditions: male, NMRI-Foxn1 nu/nu, mouse, blood, iv, total radioactivity; 4 h p.i., i.v.; read-out: % uptake blood
readout_type: tissue uptake at 4 h

molecule: CC(C)CC(CC(C)C)NC(=O)[C@H](Cc1cnc[nH]1)NC(=O)CNC(=O)[C@@H](NC(=O)[C@H](C)NC(=O)[C@H](Cc1c[nH]c2ccccc12)NC(=O)[C@H](CCC(N)=O)NC(=O)[C@@H](Cc1ccccc1)NC(=O)COCC(=O)Nc1ccc(CNC(=O)CN2CCN(CC(=O)O)CCN(CC(=O)O)CCN(CC(=O)O)CC2)cc1)C(C)C [[^177Lu]Lu-NeoB, metal not drawn]
readout_type: tissue uptake at 4 h
data_value: 0.11 %ID/g

----------
Test: Stability in mouse serum at 37 °C (radio-HPLC)
Format: in vitro ADME
Settings: 72 h, read-out: intact radiolabeled ligand (RCP)
The following compounds are shown together with reported remaining at 72 h values.

compound: CC(C)C[C@H](NC(=O)C[C@H](O)[C@H](CC(C)C)NC(=O)[C@H](Cc1c[nH]cn1)NC(=O)CNC(=O)[C@@H](NC(=O)[C@H](C)NC(=O)[C@H](Cc1c[nH]c2ccccc12)NC(=O)[C@H](CCC(N)=O)NC(=O)[C@@H](Cc1ccccc1)NC(=O)CN1CCC(NC(=O)CN2CCN(CC(=O)O)CCN(CC(=O)O)CCN(CC(=O)O)CC2)CC1)C(C)C)C(N)=O [[^177Lu]Lu-RM2, metal not drawn]
remaining at 72 h: 5.3%
//
compound: CC(C)CC(CC(C)C)NC(=O)[C@H](Cc1cnc[nH]1)NC(=O)CNC(=O)[C@@H](NC(=O)[C@H](C)NC(=O)[C@H](Cc1c[nH]c2ccccc12)NC(=O)[C@H](CCC(N)=O)NC(=O)[C@@H](Cc1ccccc1)NC(=O)COCC(=O)Nc1ccc(CNC(=O)CN2CCN(CC(=O)O)CCN(CC(=O)O)CCN(CC(=O)O)CC2)cc1)C(C)C [[^177Lu]Lu-NeoB, metal not drawn]
remaining at 72 h: 4.4%

----------
Test: In vivo biodistribution and clearance in PC-3 tumor-bearing mice
Settings: male, NMRI-Foxn1 nu/nu, mouse, kidney, iv, total radioactivity; 72 h p.i., i.v.; read-out: % uptake kidney
The following compounds are shown together with reported tissue uptake at 72 h values.

compound: CC(C)C[C@H](NC(=O)C[C@H](O)[C@H](CC(C)C)NC(=O)[C@H](Cc1c[nH]cn1)NC(=O)CNC(=O)[C@@H](NC(=O)[C@H](C)NC(=O)[C@H](Cc1c[nH]c2ccccc12)NC(=O)[C@H](CCC(N)=O)NC(=O)[C@@H](Cc1ccccc1)NC(=O)CN1CCC(NC(=O)CN2CCN(CC(=O)O)CCN(CC(=O)O)CCN(CC(=O)O)CC2)CC1)C(C)C)C(N)=O [[^177Lu]Lu-RM2, metal not drawn]
tissue uptake at 72 h: 0.12 %ID/g

compound: CC(C)CC(CC(C)C)NC(=O)[C@H](Cc1cnc[nH]1)NC(=O)CNC(=O)[C@@H](NC(=O)[C@H](C)NC(=O)[C@H](Cc1c[nH]c2ccccc12)NC(=O)[C@H](CCC(N)=O)NC(=O)[C@@H](Cc1ccccc1)NC(=O)COCC(=O)Nc1ccc(CNC(=O)CN2CCN(CC(=O)O)CCN(CC(=O)O)CCN(CC(=O)O)CC2)cc1)C(C)C [[^177Lu]Lu-NeoB, metal not drawn]
tissue uptake at 72 h: 0.04 %ID/g

----------
Experiment: In vivo biodistribution and clearance in PC-3 tumor-bearing mice
Conditions: male, NMRI-Foxn1 nu/nu, mouse, kidney, iv, total radioactivity; 1 h p.i., i.v.; read-out: % uptake kidney

compound: CC(C)C[C@H](NC(=O)C[C@H](O)[C@H](CC(C)C)NC(=O)[C@H](Cc1c[nH]cn1)NC(=O)CNC(=O)[C@@H](NC(=O)[C@H](C)NC(=O)[C@H](Cc1c[nH]c2ccccc12)NC(=O)[C@H](CCC(N)=O)NC(=O)[C@@H](Cc1ccccc1)NC(=O)CN1CCC(NC(=O)CN2CCN(CC(=O)O)CCN(CC(=O)O)CCN(CC(=O)O)CC2)CC1)C(C)C)C(N)=O [[^177Lu]Lu-RM2, metal not drawn]
unit_text: %ID/g
tissue uptake at 1 h: 3
--
compound: CC(C)CC(CC(C)C)NC(=O)[C@H](Cc1cnc[nH]1)NC(=O)CNC(=O)[C@@H](NC(=O)[C@H](C)NC(=O)[C@H](Cc1c[nH]c2ccccc12)NC(=O)[C@H](CCC(N)=O)NC(=O)[C@@H](Cc1ccccc1)NC(=O)COCC(=O)Nc1ccc(CNC(=O)CN2CCN(CC(=O)O)CCN(CC(=O)O)CCN(CC(=O)O)CC2)cc1)C(C)C [[^177Lu]Lu-NeoB, metal not drawn]
unit_text: %ID/g
tissue uptake at 1 h: 2.68

----------
Assay: In vivo biodistribution and clearance in PC-3 tumor-bearing mice
Settings: male, NMRI-Foxn1 nu/nu, mouse, liver, iv, total radioactivity; 1 h p.i., i.v.; read-out: % uptake liver
readout_type: tissue uptake at 1 h

molecule: CC(C)CC(CC(C)C)NC(=O)[C@H](Cc1cnc[nH]1)NC(=O)CNC(=O)[C@@H](NC(=O)[C@H](C)NC(=O)[C@H](Cc1c[nH]c2ccccc12)NC(=O)[C@H](CCC(N)=O)NC(=O)[C@@H](Cc1ccccc1)NC(=O)COCC(=O)Nc1ccc(CNC(=O)CN2CCN(CC(=O)O)CCN(CC(=O)O)CCN(CC(=O)O)CC2)cc1)C(C)C [[^177Lu]Lu-NeoB, metal not drawn]
readout_type: tissue uptake at 1 h
data_value: 3.35 %ID/g

molecule: CC(C)C[C@H](NC(=O)C[C@H](O)[C@H](CC(C)C)NC(=O)[C@H](Cc1c[nH]cn1)NC(=O)CNC(=O)[C@@H](NC(=O)[C@H](C)NC(=O)[C@H](Cc1c[nH]c2ccccc12)NC(=O)[C@H](CCC(N)=O)NC(=O)[C@@H](Cc1ccccc1)NC(=O)CN1CCC(NC(=O)CN2CCN(CC(=O)O)CCN(CC(=O)O)CCN(CC(=O)O)CC2)CC1)C(C)C)C(N)=O [[^177Lu]Lu-RM2, metal not drawn]
readout_type: tissue uptake at 1 h
data_value: 0.2 %ID/g
